target: human PDE4D3 (Homo sapiens (Human)); test: PDE4D3 Scintillation Proximity Assay (SPA), inhibition of enzyme activity; format: biochemical; conditions: Table 9, geometric mean of 2-9 determinations unless otherwise indicated, read-out: Human PDE4D FL
Sequence (Q08499 186-808): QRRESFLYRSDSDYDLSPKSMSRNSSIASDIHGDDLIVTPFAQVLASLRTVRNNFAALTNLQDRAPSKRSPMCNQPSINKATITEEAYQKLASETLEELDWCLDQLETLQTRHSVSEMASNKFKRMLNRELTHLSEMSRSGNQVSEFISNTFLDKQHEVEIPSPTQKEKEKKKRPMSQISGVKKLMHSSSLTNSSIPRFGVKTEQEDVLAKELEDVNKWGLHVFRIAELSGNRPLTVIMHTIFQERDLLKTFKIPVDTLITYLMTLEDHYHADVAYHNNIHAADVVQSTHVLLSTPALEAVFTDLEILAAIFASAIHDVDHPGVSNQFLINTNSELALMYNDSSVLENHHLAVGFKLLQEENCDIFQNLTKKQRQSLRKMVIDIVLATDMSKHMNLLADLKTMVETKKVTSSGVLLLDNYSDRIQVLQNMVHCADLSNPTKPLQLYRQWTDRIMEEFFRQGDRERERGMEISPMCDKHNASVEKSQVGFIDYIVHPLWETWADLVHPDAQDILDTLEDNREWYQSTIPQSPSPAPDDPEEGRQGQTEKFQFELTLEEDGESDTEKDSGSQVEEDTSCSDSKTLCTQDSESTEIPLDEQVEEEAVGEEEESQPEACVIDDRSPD
In this section we review reported IC50 values for a set of compounds.
The reply should contain only the number, in nM.

Cc1ccc(-c2c3n(c4cccnc24)CCN(C2CC2)C3=O)cc1C: 497
O=C1c2c(-c3ccc(Cl)cc3)c3ncccc3n2CCN1C1CC1: 75.3
O=C1c2c(-c3ccc(Cl)cc3)c3nccnc3n2CCN1C1CC1: 345

## Input Record COc1c(F)cc(-c2c3n(c4cccnc24)CCN(C2CC2)C3=O)cc1F : what is its IC50 with human PDE4D3 (Homo sapiens (Human))?
## Output 125

## Input Here is the next compound: O=C1c2c(-c3ccc(Cl)cc3)c3ccccc3n2CCN1C1CC1
## Output 3090

## Input Here is the next compound: Cc1ccc(-c2c3ncccc3n3ccn(C4CC4)c(=O)c23)c(C)c1
## Output 460

## Input Here is the next compound: N#Cc1ccc(-c2c3n(c4cccnc24)CCN(C2CC2)C3=O)cc1F
## Output 36.3

## Input Here is the next compound: Cc1ccc(-c2c3ncccc3n3ccn(C4CC4)c(=O)c23)cc1
## Output 182

## Input Here is the next compound: N#Cc1ccc(-c2c3n(c4cccnc24)CCN(C2CC2)C3=O)c(F)c1
## Output 872

----------
Target: Human PDE4B1 (Homo sapiens (Human), UniProt Q07343, S133E/S654A/S659A/S661A)
Sequence (Q07343 122-736 S133E/S654A/S659A/S661A): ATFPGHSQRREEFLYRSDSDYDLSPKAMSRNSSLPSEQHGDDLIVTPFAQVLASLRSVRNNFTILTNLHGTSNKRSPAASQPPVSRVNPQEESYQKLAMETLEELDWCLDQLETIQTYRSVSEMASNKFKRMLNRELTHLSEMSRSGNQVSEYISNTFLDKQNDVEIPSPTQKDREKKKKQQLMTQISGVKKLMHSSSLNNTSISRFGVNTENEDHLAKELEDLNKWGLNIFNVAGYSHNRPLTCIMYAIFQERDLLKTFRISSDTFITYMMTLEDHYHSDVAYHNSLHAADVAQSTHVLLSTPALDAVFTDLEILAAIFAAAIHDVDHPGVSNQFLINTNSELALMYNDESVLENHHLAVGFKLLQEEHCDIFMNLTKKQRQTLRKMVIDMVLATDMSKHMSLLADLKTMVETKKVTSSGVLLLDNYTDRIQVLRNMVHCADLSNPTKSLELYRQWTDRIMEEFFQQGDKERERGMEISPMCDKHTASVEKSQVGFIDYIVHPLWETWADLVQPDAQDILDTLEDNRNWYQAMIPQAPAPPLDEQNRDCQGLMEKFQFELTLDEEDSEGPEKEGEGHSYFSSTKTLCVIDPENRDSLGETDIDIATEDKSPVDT
Test: PDE4B1 Scintillation Proximity Assay (SPA), inhibition of enzyme activity
Format: biochemical
Conditions: Table 9, geometric mean of 2-9 determinations unless otherwise indicated, read-out: Human PDE4B FL
Protocol: The PDE4A, PDE4B, PDE4C and PDE4D binding affinity for the compounds of the present invention was determined utilizing the following biological assay(s): The recombinant Bacmid was isolated and used to transfect insect cells to generate a viral stock. […] PDE4D fractions were analyzed by SDS-PAGE Coomassie blue staining, pooled based on purity, frozen and stored at −80° C. […]
In this section we review reported pIC50 values for a set of molecules.
// scale note: pIC50 = -log10(conc_M); give the bare number

The following molecules have reported results that may help.
O=C1NCCn2c1c(-c1ccc(Cl)cc1)c1ncccc12 [Example 19]: 7.73
N#Cc1ccc(-c2c3n(c4cccnc24)CCN(C2CC2)C3=O)cn1 [Example 26]: 8.53
O=C1c2c(-c3cc(F)ccc3F)c3ncccc3n2CCN1C1CC1 [Example 46]: 8.39

## Input Please report the recorded pIC50 for O=C1c2c(-c3ccc(Cl)cc3)c3cccnc3n2CCN1C1CC1 [Example 9] .
## Output 6.53

## Input Here is the next molecule: Cc1ccc(-c2c3n(c4cccnc24)CCN(C2CC2)C3=O)cc1 [Example 20]
## Output 8.31

## Input Here is the next molecule: O=C1c2c(-c3ccc(F)cc3F)c3ncccc3n2CCN1C1CC1 [Example 38]
## Output 7.96

## Input Here is the next molecule: Cc1ncc(-c2c3n(c4cccnc24)CCN(C2CC2)C3=O)cn1 [Example 21]
## Output 7.12

## Input Here is the next molecule: COc1ccc(-c2c3n(c4cccnc24)CCN(C2CC2)C3=O)c(F)c1 [Example 54]
## Output 7.26

## Input Here is the next molecule: Cc1cc(C#N)ccc1-c1c2n(c3scnc13)CCN(C1CC1)C2=O [Example 14]
## Output 7.71

## Input Here is the next molecule: Cc1cc(-c2c3n(c4cccnc24)CCN(C2CC2)C3=O)ccc1F [Example 37]
## Output 8.42

## Input Here is the next molecule: O=C1c2c(-c3ccc(Cl)cc3)c3ncsc3n2CCN1C1CC1 [Example 27]
## Output 8.52

## Input Here is the next molecule: O=C1c2c(-c3ccc(Cl)cc3)c3ncccc3n2CC2CCN12 (stereo not shown) [Example 67]
## Output 8.31

## Input Here is the next molecule: O=c1c2c(-c3ccc(Cl)cc3)c3ncccc3n2ccn1-c1nnc[nH]1 [Example 6]
## Output 8.08
